Reference for the values: patent US20260130395A1

- MEASUREMENT PROTOCOL: Stability of cannabinoid entourage and Vitamin E components of the powder concentrate by LCMSMS
- Format: physicochemical
- CONDITION SET: powder stored at 21-25° C.; 210 days
For each of the compounds below, state its Stability of Plant-Derived Cannabinoid Compounds in Powder Concentrate.
Expressed in mg/g powder, but write only the number.

State the recorded Stability of Plant-Derived Cannabinoid Compounds in Powder Concentrate for this entry: CCCc1cc(O)c2c(c1)OC(C)(C)[C@@H]1CCC(C)=C[C@@H]21 [THCV, delta-9-tetrahydrocannabivarin] 0.662

Moving on to C=C(C)[C@@H]1CCC(C)=C[C@H]1c1c(O)cc(CCCCC)cc1O [CBD, cannabidiol, reference compound] 5.83

Moving on to CCCCCc1cc2c(c(O)c1C(=O)O)[C@@H]1C=C(C)CC[C@H]1C(C)(C)O2 [D9 THCA, delta-9-tetrahydrocannabinolic acid] 0.151

Moving on to CCCCCc1cc(O)c(C/C=C(\C)CCC=C(C)C)c(O)c1 [CBG, cannabigerol] 1.06
